system: herpes simplex virus 2 (HSV-2; strain MS); assay: Plaque reduction test for herpes simplex virus 2; assay type: cell-based; settings: Human alphaherpesvirus 2, MRC5; plaque reduction, MS strain, MRC-5 cells; read-out: IC₅₀ Herpes Simplex virus Type 2 MS strain in MRC-5 cells

{"COMPOUND": "Nc1nc2c(ncn2OCCOCP(=O)(O)O)c(=O)[nH]1 [Example 4, 9-[2-(Phosphonomethoxy)ethoxy]guanine]", "UNIT NAME": "µg/mL", "REL": "=", "IC50": 0.08}
{"COMPOUND": "Nc1ncnc2c1ncn2OCCOCP(=O)(O)O [Example 2, 9-[2-(Phosphonemethoxy)ethoxy]adenine]", "UNIT NAME": "µg/mL", "REL": "=", "IC50": 69}
{"COMPOUND": "Nc1nc2c(ncn2OCC(CO)OCP(=O)(O)O)c(=O)[nH]1 (stereo not shown)", "UNIT NAME": "µg/mL", "REL": "=", "IC50": 7.3}
{"COMPOUND": "Nc1ncnc2c1ncn2OCC(CO)OCP(=O)(O)O (stereo not shown)", "UNIT NAME": "µg/mL", "REL": ">", "IC50": 100}
